Documented IC50 across a set of molecules
Molecular target: HCV NS5B polymerase (His-tagged, C-terminal 21 amino acid deleted NS5B, HC-J4) (Hepatitis C virus genotype 1b)
Construct: The cDNA encoding NS5B amino acid 1-570 (HC-J4, genotype 1b); His tag (His6, from pET-21b) (C); made in house; host or cells: E. coli BL21 (DE3)
Sequence (O92972 2417-3000, looked up, stated change not applied): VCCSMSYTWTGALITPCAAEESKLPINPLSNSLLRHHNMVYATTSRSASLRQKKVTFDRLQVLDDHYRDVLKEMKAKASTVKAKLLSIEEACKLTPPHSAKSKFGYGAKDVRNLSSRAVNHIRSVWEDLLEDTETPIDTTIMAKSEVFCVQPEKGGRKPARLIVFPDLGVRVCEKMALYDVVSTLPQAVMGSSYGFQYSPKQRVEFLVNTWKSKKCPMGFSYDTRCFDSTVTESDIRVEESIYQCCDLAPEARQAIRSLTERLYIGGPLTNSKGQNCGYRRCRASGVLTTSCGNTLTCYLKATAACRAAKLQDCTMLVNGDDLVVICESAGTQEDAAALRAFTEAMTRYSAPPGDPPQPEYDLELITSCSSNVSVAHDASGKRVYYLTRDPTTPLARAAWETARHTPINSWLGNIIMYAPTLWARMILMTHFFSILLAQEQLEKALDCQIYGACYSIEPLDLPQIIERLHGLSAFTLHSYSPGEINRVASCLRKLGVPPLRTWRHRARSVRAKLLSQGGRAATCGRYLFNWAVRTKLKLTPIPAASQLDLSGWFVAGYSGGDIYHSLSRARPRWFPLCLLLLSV
Test: NS5b polymerase assay (biochemical RdRp assay, 3H-GTP incorporation, SPA beads)
Set-up: species or system HCV genotype 1b
Conditions: NS5B Polymerase Assay IC50 (μM)
Method: The compounds of formula (I) were tested for anti-HCV activity in an assay determining their activity against NS5b polymerase and in an HCV replicon assay The cDNA encoding NS5B amino acid 1-570 (HC-J4, genotype 1b, pCV-J4L6S, genebank accession number AF054247) was subcloned into the Nhe I and Xho I restriction sites of pET-21b. Expression of the subsequent His-tagged C-terminal 21 amino acid deleted NS5B was performed as follows: […]

See these solved cases before continuing.
molecule	IC50
CC1(C)CC(=O)C2=C(C1)Nc1cc(F)c(F)cc1NC2c1ccc(Cl)cc1Cl (centres unmarked)	68.1 µM
COc1ccc(C2CC(=O)C3=C(C2)Nc2ccccc2NC3c2cc([N+](=O)[O-])ccc2Cl)cc1 (centres unmarked)	> 42.7 µM
CC1(C)CC(=O)C2=C(C1)Nc1ccccc1NC2c1ccccc1C(=O)O (centres unmarked)	> 42.7 µM

As a next step, examine the molecule that follows.
Entry CC1(C)CC(=O)C2=C(C1)Nc1ccccc1NC2c1cc2c(cc1[N+](=O)[O-])OCO2 (centres unmarked) — recorded IC50 = > 42.7 µM
